# System: H2981 cell line
# Assay remarks: Escherichia coli TEM-1 beta-lactamase (ECbL) enzyme concentration required to achieve an IC50 value of compound on H2981 lung adenocarcinoma cells
# Format: functional, cell-based
# Measurement context: Homo sapiens
pIC50: −log10 of the molar value.
Where pIC50 equals or exceeds 9, the correct label is satisfied; where it does not, the label is not satisfied.

Observe how each entry below is paired with its result.
COc1cccc2c1C(=O)c1c(O)c3c(c(O)c1C2=O)C[C@@](O)(C(=O)CO)C[C@@H]3OC1CC(NC(=O)OCC2=C(C(=O)O)N3C(=O)[C@@H](N)[C@H]3SC2)C(O)C(C)O1 (stereo partly specified) | not satisfied
COc1cccc2c1C(=O)c1c(O)c3c(c(O)c1C2=O)C[C@@](O)(C(=O)CO)C[C@@H]3OC1CC(NC(=O)OCC2=C(C(=O)O)N3C(=O)[C@@H](NC(=O)C(c4ccccc4)S(=O)(=O)O)[C@H]3SC2)C(O)C(C)O1 (stereo partly specified) | not satisfied
COc1cccc2c1C(=O)c1c(O)c3c(c(O)c1C2=O)C[C@@](O)(C(=O)CO)C[C@@H]3OC1CC(NC(=O)OCC2=C(C(=O)O)N3C(=O)[C@@H](NC(=O)Cc4cccs4)[C@H]3SC2)C(O)C(C)O1 (stereo partly specified) | satisfied

Now for a further compound.
In: Tell me whether pIC50 is at least 9 here: COc1cccc2c1C(=O)c1c(O)c3c(c(O)c1C2=O)C[C@@](O)(C(=O)CO)C[C@@H]3OC1CC(NC(=O)OCC2=C(C(=O)O)N3C(=O)[C@@H](NC(=O)CCCC(=O)O)[C@H]3SC2)C(O)C(C)O1 (stereo partly specified)
Out: not satisfied

---

For each of the compounds below, state its pIC50.
# Tested on: H2981 cell line
# Assay remarks: Concentration resulting in 50% incorporation of [3H]thymidine compared to untreated control cells on H2981 human lung adenocarcinoma cells in the presence of 10 ug/mL Enterobacter cloacae P99 beta-lactamase (ECIbL)
# Assay type: functional, cell-based
# Measurement context: H2981, 1 h
Give bare numbers, as −log10 of the molar value.

Please review the entries below; each comes with its answer.
COc1cccc2c1C(=O)c1c(O)c3c(c(O)c1C2=O)C[C@@](O)(C(=O)CO)C[C@@H]3OC1CC(NC(=O)OCC2=C(C(=O)O)N3C(=O)[C@@H](NC(=O)CCCC(=O)O)[C@H]3SC2)C(O)C(C)O1 (stereo partly specified) | 6.33
COc1cccc2c1C(=O)c1c(O)c3c(c(O)c1C2=O)C[C@@](O)(C(=O)CO)C[C@@H]3OC1CC(NC(=O)OCC2=C(C(=O)O)N3C(=O)[C@@H](NC(=O)Cc4ccccc4)[C@H]3SC2)C(O)C(C)O1 (stereo partly specified) | 6.12
COc1cccc2c1C(=O)c1c(O)c3c(c(O)c1C2=O)C[C@@](O)(C(=O)CO)C[C@@H]3OC1CC(NC(=O)OCC2=C(C(=O)O)N3C(=O)[C@@H](NC(=O)Cc4cccs4)[C@H]3SC2)C(O)C(C)O1 (stereo partly specified) | 6.26
COc1cccc2c1C(=O)c1c(O)c3c(c(O)c1C2=O)C[C@@](O)(C(=O)CO)C[C@@H]3OC1CC(NC(=O)OCC2=C(C(=O)O)N3C(=O)[C@@H](N)[C@H]3SC2)C(O)C(C)O1 (stereo partly specified) | 6.37
COc1cccc2c1C(=O)c1c(O)c3c(c(O)c1C2=O)C[C@@](O)(C(=O)CO)C[C@@H]3OC1CC(NC(=O)OCC2=C(C(=O)O)N3C(=O)[C@@H](NC(=O)C(c4ccccc4)S(=O)(=O)O)[C@H]3SC2)C(O)C(C)O1 (stereo partly specified) | 6.33

In: Fill blank: measured pIC50 of the compound COc1cccc2c1C(=O)c1c(O)c3c(c(O)c1C2=O)C[C@@](O)(C(=O)CO)C[C@@H]3OC1CC(NC(=O)OCC2=C(C(=O)O)N3C(=O)[C@@H](NC(=O)CSC4OC(CO)C(O)C(O)C4O)[C@H]3SC2)C(O)C(C)O1 (stereo partly specified) is ____.
Out: 6.35
